These data points were gathered from patent US5374713A.

Biological target: phospholipase A2 from human inflammatory sites (the joint fluid from patients with rheumatoid arthritis) (Homo sapiens, UniProt P14555)
Construct: from human inflammatory sites (the joint fluid from patients with rheumatoid arthritis); from tissue; host or cells: joint fluid from patients with rheumatoid arthritis
Sequence (P14555 21-144): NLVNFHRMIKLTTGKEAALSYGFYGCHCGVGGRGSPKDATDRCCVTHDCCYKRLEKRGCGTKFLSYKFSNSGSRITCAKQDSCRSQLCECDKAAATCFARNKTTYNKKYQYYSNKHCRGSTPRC
Assay: Determination of inhibitory activity against phospholipase A2 (human inflammatory sites)
Assay type: biochemical
Conditions: phosphatidylethanolamine substrate, pH 9.0, 37° C., 10 minutes
Ends that are not written are not given here.
QUANTITY NAME: IC50

Request: May I ask what IC50 has been recorded for QKDAPDHQELNLDVSLQLPSR ?
Result: ~500 nM

* * *

Molecular target: phospholipase A2 from rat inflammatory sites (Rattus norvegicus, UniProt P14423)
Construct: rat inflammatory sites (Chang et al., J. Biochem., 102, 147-154, 1987); from tissue
Sequence (P14423 22-146): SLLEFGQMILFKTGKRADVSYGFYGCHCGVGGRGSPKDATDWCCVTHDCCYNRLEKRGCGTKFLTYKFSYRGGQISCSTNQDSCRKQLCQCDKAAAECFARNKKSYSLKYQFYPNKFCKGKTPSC
Test: Determination of inhibitory activity against phospholipase A2 (rat inflammatory sites)
Assay type: biochemical
Settings: phosphatidylethanolamine substrate, pH 9.0, 37° C., 10 minutes
Ends that are not written are not given here.
QUANTITY NAME: IC50

Request: // lookup IC50 for QKDAPDHQELNLDVSLQLPSR
Result: ~500 nM
